tested on: U251 CNS; test: NCI tumour cell line growth inhibition, 48 h
MEASURED_METRIC: TGI

Asked: State the recorded TGI for this entry: COC(=O)C1=C(OC(=O)c2ccccc2)C(C(=O)OC)[C@]2(O)[C@@H](C(=O)OC)C1CC(c1ccccc1OC)[C@@H]2C(=O)OC (stereo partly specified)
Given back: > 100 µM

Asked: Recorded TGI of "COc1ccc(/C=C/c2nsc(/C=C/c3ccc(OC)cc3)n2)cc1" , please.
Given back: > 100 µM

Asked: Consider the molecule shown here: "CN(NC(=O)/C(=C/c1ccc(Cl)cc1)NC(=O)c1ccccc1)c1cn[nH]c(=O)c1Cl" What is its recorded TGI?
Given back: > 100 µM

Asked: What TGI value was documented for this molecule, COc1ccc(C2/C(=C(\O)c3ccccc3)C(=O)C(O)(CC(=O)c3ccccc3)N2c2ccc(OC)cc2)cc1 (stereo unspecified) ?
Given back: > 64.3 µM

Asked: Quick check: TGI of "O=C1c2ccccc2C(=O)c2c1c(=O)c(=O)c1ccccc1c(=O)n2Cc1ccccc1" ?
Given back: > 100 µM

Asked: Item under review: "CCNCCCn1c2c(c3ccc(F)cc3c1=O)C(=O)c1cc(OC)cnc1-2" . Reported TGI?
Given back: 0.506 µM

Asked: Recorded TGI for CC1OC(OC2C(O)C(OCCc3ccc(O)c(O)c3)OC(CO)C2OC(=O)/C=C/c2ccc(O)c(O)c2)C(O)C(O)C1OC1OCC(O)(CO)C1O (stereo unspecified) , please?
Given back: > 100 µM

Asked: Consider the molecule O=C1NC2c3c(I)sc(I)c3/C(=N\O)C2O1 (stereo unspecified) and give its measured TGI.
Given back: 76.9 µM

Asked: Looking for the measured TGI of "Cc1cc(-n2c(/C=C/c3ccc(Cl)cc3)nc3cc(Cl)ccc3c2=O)on1" , can you help?
Given back: 16.4 µM

Asked: Param item = CC(C)=CC(O)C(C(O)CCC1(C)OCCO1)S(=O)(=O)c1ccccc1 (stereo unspecified) ; retrieve measured TGI.
Given back: > 100 µM

Asked: Give the measured TGI of "Nc1c(Br)cc2c(c1Br)Cc1cc(Br)ccc1-2" .
Given back: > 100 µM

Asked: Fill blank: measured TGI of the molecule CCOC(=O)C1(Cc2ccc3c(c2)CCC3)Cc2cc3c(cc2C1=O)CCC3 (stereo unspecified) is ____.
Given back: > 100 µM

Asked: Consider the molecule "NCCc1c[nH]c2ccc(OC(=O)C(=O)O)cc12" and give its measured TGI.
Given back: > 100 µM

Asked: Fill blank: measured TGI of the molecule "CC1(C)OC(=O)C(c2cccs2)C(=O)O1" is ____.
Given back: > 100 µM

Asked: Recorded TGI for "O=Cc1c(O)ccc2ccc(O)c(-c3c(O)ccc4ccc(O)cc34)c12" , please?
Given back: > 100 µM

Asked: Look up TGI for this molecule: "NS(=O)(=O)c1ccc(N=Cc2c(O)[nH]c3ccc4ncsc4c23)cc1"
Given back: > 8.07 µM

Asked: Item under review: "COc1cc(C(=O)c2c(-c3ccccc3)oc3c(OC)cccc23)cc(OC)c1O" . Reported TGI?
Given back: > 100 µM

Asked: Using the record for "CCn1c2ccccc2c2cc(/C=C(/C#N)C(N)=S)ccc21" , report its TGI.
Given back: 23.5 µM

Asked: // query TGI value for entry "Nc1n[n+](=O)c2ccccc2n1O"
Given back: > 100 µM

Asked: What does the data say about its TGI? Entry: COC(=O)C1(NC(=O)C(CC(=O)OCc2ccccc2)NC(=O)OCc2ccccc2)CCCCCCC1 (stereo unspecified)
Given back: > 100 µM

Asked: Could you share which TGI value was measured for "CCNCCCCNCCCCNCCCCNCCCCNCC" ?
Given back: > 100 µM

* * *

Can you tell me TGI for the items I'm about to list?
system: RPMI-8226 leukemia; test: NCI tumour cell line growth inhibition, 48 h
*1 amine or outer side, *2 acyl side, *3 side chain or, on linkers, in order; H or OH if unused. Where a SMILES comes first, the peptide text is derived from it. [ ]: non-standard residue; d: D form. ξ: configuration not given here. Ile(3ξ) = CCC(C)[C@H](N)C(=O)O; X33 = C=CCC(O[*:1])C(=O)[*:2]; NMeV = CN[C@H](C(=O)O)C(C)C; NMeA = CN[C@@H](C)C(=O)O; βAla = NCCC(=O)O

Asked: Tell me reported TGI for O=C1CSC(c2ccccc2O)N1c1ccc(-c2ccc(-n3c(-c4ccccc4)nc4ccccc4c3=O)cc2)cc1 (stereo not given) , tested with RPMI-8226 leukemia.
Given back: > 100 µM

Asked: What measured TGI is associated with "N#C/C(C(=O)Nc1ccccc1)=C(/N)N1CCCC1" on RPMI-8226 leukemia?
Given back: > 100 µM

Asked: Enter reported TGI observed with RPMI-8226 leukemia for C=CCC1OC(=O)CCNC(=O)[C@H](C)N(C)C(=O)[C@H](C(C)C)N(C)C(=O)[C@H](C(C)CC)NC(=O)[C@@H]2CCCN2C1=O (stereo not given in full) (cyclo([Ile(3ξ)][NMeV][NMeA][βAla][X33]P))
Given back: > 100 µM

Asked: Hello, I am looking for reported TGI with RPMI-8226 leukemia for CC1NS(=O)(=O)N(C)C1=O (stereo not given) . Could you help?
Given back: > 100 µM

Asked: Identify the measured TGI of COc1ccc(S(=O)Cc2cc(OC)c(OC)c(OC)c2)cc1 (stereo not given) for RPMI-8226 leukemia.
Given back: > 100 µM

Asked: Quick check: TGI on RPMI-8226 leukemia, item "COc1ccc(C(c2ccc(C(C)C)cc(OC)c2=O)c2ccc(C(C)C)cc(OC)c2=O)cc1" ?
Given back: 25.6 µM

Asked: # value lookup — system RPMI-8226 leukemia, readout TGI, item "O=c1c2c([nH]c3ccccc13)CCCC2"
Given back: > 100 µM

Asked: Given the entry "Nc1ccccc1C#C/C=C\C#Cc1cnccn1" , what TGI was observed with RPMI-8226 leukemia?
Given back: 19.2 µM

Asked: Query TGI on RPMI-8226 leukemia for "COc1ccc(/C=C/c2nsc(/C=C/c3ccc(OC)cc3)n2)cc1"
Given back: > 100 µM

Asked: # query: TGI | item "CCCSc1ccc2nc(NC(=O)OC)[nH]c2c1" | system: RPMI-8226 leukemia
Given back: > 100 µM

Asked: Param readout = TGI; param system = RPMI-8226 leukemia; param query = "N#CC[C@@H](O)COc1ccccc1" ; response: value
Given back: > 100 µM

Asked: Give the reported TGI for "C[n+]1cn(C2=C([O-])c3ccccc3C(=O)/C2=N\S(=O)(=O)c2ccccc2)c2ccccc21" (system: RPMI-8226 leukemia).
Given back: > 100 µM

Asked: Write down the reported TGI of "O=C1c2ccccc2-c2nc(-c3ccncc3)cc3c2c1nc1ccccc13" , test system: RPMI-8226 leukemia.
Given back: > 100 µM

Asked: What measured TGI is associated with CCC1CC(C)C(O)/C=C/C=C/CC(C)OC(=O)CC(O)C(OC)C1OC1OC(C)CC(O)(C(C)=O)C1O (stereo not given) on RPMI-8226 leukemia?
Given back: > 100 µM

Asked: API: value(readout=TGI, system=RPMI-8226 leukemia) for record Cc1c([C@H](C(Cl)Cl)[C@H](O)[C@H]2C[C@H](C)C(=O)O2)ccc2c1C(=O)[C@H]1[C@H]2C[C@@H](Br)[C@@]23O[C@@H](CO[C@H]2O)CC13C (stereo not given in full)
Given back: > 50 µM

Asked: Which TGI is reported with RPMI-8226 leukemia for this entry: "CN(C)c1ccc(Nc2ncnc3ccccc23)cc1" ?
Given back: > 100 µM

Asked: Look up TGI with RPMI-8226 leukemia for this molecule: "COc1cc(Nc2nc3ccccc3n3cccc23)cc(OC)c1OC"
Given back: > 100 µM

Asked: Field: TGI (RPMI-8226 leukemia). Entry: "O=[N+]([O-])c1ccc(C(Br)c2ccc([N+](=O)[O-])cc2)cc1"
Given back: 6.75 µM

Asked: Request - read-out TGI | tested on RPMI-8226 leukemia | molecule CCN1C(=O)N(C)C(O)c2c1nc1ccccn1c2=O (stereo not given)
Given back: 78.6 µM

Asked: Item: "CN(C)c1[se]nc2c1c(=O)n(C)c(=O)n2C" Test system: RPMI-8226 leukemia Read-out: TGI Value: ?
Given back: > 100 µM

Asked: Record "Oc1ccc(-c2nc3ccc4ccccc4c3c3c2CCCC3)c(O)c1" : what is its TGI with RPMI-8226 leukemia?
Given back: > 100 µM

Asked: Request - read-out TGI | tested on RPMI-8226 leukemia | molecule "CC1=C(C(=O)Nc2ccc([N+](=O)[O-])cc2)C(c2cccc([N+](=O)[O-])c2)C(C(=O)Nc2ccc([N+](=O)[O-])cc2)=C(C)N1"
Given back: > 100 µM

Asked: Fill in the recorded TGI for this molecule, with RPMI-8226 leukemia as test system: Cc1nn(C(=O)c2ccccc2O)c2c1C(c1ccccc1O)SC(N)=N2 (stereo not given)
Given back: 8.19 µM

Asked: Find the measured TGI: item O=[N+]([O-])c1ccc(C2N3CCCCC3[C@H]3CCCCN23)cc1 (stereo not given in full) , target or system RPMI-8226 leukemia.
Given back: > 100 µM

Asked: Lab note: need TGI for "CC(/C=N/N(C)C1=NCCCN1)=N/N(C)C1=NCCCN1" on RPMI-8226 leukemia, anyone have it?
Given back: > 100 µM

Asked: Tell me reported TGI for "C[CH2][Sn]([CH2]C)([O]C(=O)c1cccc(OC)c1)[O][Sn]([CH2]C)([CH2]C)[O]C(=O)c1cccc(OC)c1" , tested with RPMI-8226 leukemia.
Given back: 54.3 µM

Asked: I'm curious: which TGI was measured for "c1ccc2c(c1)c1ccccc1c1n[se]nc21" tested on RPMI-8226 leukemia?
Given back: > 100 µM

Asked: What reported TGI corresponds to COc1ccc(C2/C(=C(\O)c3ccccc3)C(=O)C(O)(CC(=O)c3ccccc3)N2c2ccc(OC)cc2)cc1 (stereo not given) on RPMI-8226 leukemia?
Given back: 14.8 µM

Asked: Form: Entry = "O=C(ON=c1c2ccccc2ccc2ccccc12)c1ccccc1" | System = RPMI-8226 leukemia | TGI = ____
Given back: 73.5 µM

Asked: Give the reported TGI for "Cn1c2c([N+](=O)[O-])cccc2c(=O)c2c(O)cc3c(c21)C=CC(C)(C)O3" (system: RPMI-8226 leukemia).
Given back: > 100 µM

Asked: TGI of "Oc1ccc(Nc2nc3ccccc3c3occc23)cc1" on RPMI-8226 leukemia?
Given back: 72.6 µM

Asked: Look up TGI with RPMI-8226 leukemia for this molecule: "O=C(Nc1c(Cl)cccc1Cl)c1c(Cl)c(Cl)c(Cl)c(Cl)c1-c1nc2ccccc2[nH]1"
Given back: > 100 µM

Asked: Lab request: please report TGI under test system RPMI-8226 leukemia for "O=Cc1c(O)ccc2ccc(O)c(-c3c(O)ccc4ccc(O)cc34)c12"
Given back: > 100 µM

Asked: Form field: TGI recorded for "NS(=O)(=O)c1ccc(N=Cc2c(O)[nH]c3ccc4ncsc4c23)cc1" with RPMI-8226 leukemia (enter value)
Given back: > 21.2 µM

Asked: Query for RPMI-8226 leukemia: what TGI does the record show for "O=C(C=P(c1ccccc1)(c1ccccc1)c1ccccc1)c1ccc(-c2cccc([N+](=O)[O-])c2)cc1" ?
Given back: 3.98 µM
